# target desc: MOF-KAT8 (Homo sapiens, UniProt Q9H7Z6)
# Sequence (Q9H7Z6 with tags, fused parts or gaps): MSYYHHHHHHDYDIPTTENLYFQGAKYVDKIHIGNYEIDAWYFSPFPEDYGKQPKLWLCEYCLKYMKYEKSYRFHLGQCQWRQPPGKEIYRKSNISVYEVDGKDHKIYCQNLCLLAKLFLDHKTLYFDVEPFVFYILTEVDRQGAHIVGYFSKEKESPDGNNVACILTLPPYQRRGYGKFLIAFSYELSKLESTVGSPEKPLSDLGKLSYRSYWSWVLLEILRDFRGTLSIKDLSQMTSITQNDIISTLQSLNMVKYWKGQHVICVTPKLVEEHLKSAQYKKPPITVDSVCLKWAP
measurement label: pIC50
One number for each entry, as −log10 of the molar value.

- cpd smiles: "CCc1ccc(OC)c(S(=O)(=O)Nc2noc3c(-c4ccccc4)cccc23)c1"
  target desc: "MOF-KAT8 (Homo sapiens, UniProt Q9H7Z6)"
  measurement label: "pIC50"
  result value: 6.11
- cpd smiles: "COc1cccc(OCc2cnn(C)c2)c1S(=O)(=O)Nc1noc2cccc(OC)c12"
  target desc: "MOF-KAT8 (Homo sapiens, UniProt Q9H7Z6)"
  measurement label: "pIC50"
  result value: 4.55
- cpd smiles: "Cc1ccc(-c2ccno2)cc1S(=O)(=O)Nc1noc2cccc(Cl)c12"
  target desc: "MOF-KAT8 (Homo sapiens, UniProt Q9H7Z6)"
  measurement label: "pIC50"
  result value: 4.39
- cpd smiles: "COc1cccc(OC)c1S(=O)(=O)Nc1noc2cccc([N+](=O)[O-])c12"
  target desc: "MOF-KAT8 (Homo sapiens, UniProt Q9H7Z6)"
  measurement label: "pIC50"
  result value: 4.37

Kindly state the measured pIC50 obtained for "Cc1ccc(-n2cccn2)cc1S(=O)(=O)Nc1noc2cccc(Cl)c12" with MOF-KAT8 (Homo sapiens, UniProt Q9H7Z6). 4.21

* * *

Task for the reader: assign each of the following compounds its reported IC50.
# target desc: MOZ-KAT6A (Homo sapiens, UniProt Q92794, A567V)
# Sequence (Q92794 with tags, fused parts or gaps A567V): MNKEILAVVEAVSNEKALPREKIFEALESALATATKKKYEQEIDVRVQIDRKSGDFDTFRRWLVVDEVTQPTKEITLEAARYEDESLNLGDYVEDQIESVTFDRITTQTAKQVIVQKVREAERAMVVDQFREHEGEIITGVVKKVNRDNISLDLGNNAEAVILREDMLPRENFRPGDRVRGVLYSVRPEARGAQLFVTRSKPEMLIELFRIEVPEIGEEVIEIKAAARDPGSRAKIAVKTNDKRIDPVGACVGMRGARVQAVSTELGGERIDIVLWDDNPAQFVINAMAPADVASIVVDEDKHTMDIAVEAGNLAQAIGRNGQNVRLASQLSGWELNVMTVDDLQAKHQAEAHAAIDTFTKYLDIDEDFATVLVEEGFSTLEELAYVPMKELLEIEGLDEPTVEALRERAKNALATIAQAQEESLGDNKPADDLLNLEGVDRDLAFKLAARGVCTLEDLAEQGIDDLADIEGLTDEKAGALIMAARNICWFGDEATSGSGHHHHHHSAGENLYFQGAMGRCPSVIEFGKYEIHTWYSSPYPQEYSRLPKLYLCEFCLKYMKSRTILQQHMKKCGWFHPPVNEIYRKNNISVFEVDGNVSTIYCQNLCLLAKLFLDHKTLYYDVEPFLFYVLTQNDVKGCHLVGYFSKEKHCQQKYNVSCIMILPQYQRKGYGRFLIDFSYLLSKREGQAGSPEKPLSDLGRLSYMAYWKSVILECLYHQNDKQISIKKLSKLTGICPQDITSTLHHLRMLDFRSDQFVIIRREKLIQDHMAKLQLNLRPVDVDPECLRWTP
# protocol: Acetyltransferase biochemical assay (AlphaScreen), KAT6A
Answers are plain numbers, in µM.

Parameter requested: IC50. Apply to each item below.
1. CCc1ccc(OC)c(S(=O)(=O)Nc2noc3ccc(C#N)cc23)c1
2. CCc1ccc(OC)c(S(=O)(=O)Nc2noc3c(C4CCCCC4)cccc23)c1
3. O=S(=O)(Nc1noc2cccc(Cl)c12)c1cccc2c1OCC2
4. CS(=O)(=O)c1ccc(S(=O)(=O)Nc2noc3cccc(Cl)c23)cc1
5. CCc1ccc(OC)c(S(=O)(=O)Nc2noc3ccc(C4CC4)cc23)c1
6. CCc1ccc(OC)c(S(=O)(=O)Nc2noc3cccc(Cl)c23)c1

1. 9.95
2. 9.73
3. 9.44
4. 24.8
5. 0.318
6. 0.516

Parameter requested: IC50. Apply to each item below.
1. CCc1ccc(OC)c(S(=O)(=O)Nc2noc3ccc(C(N)=O)cc23)c1
2. COc1ccc(S(=O)(=O)Nc2noc3cc(C#N)c(C)cc23)c(OC)c1
3. O=S(=O)(Nc1noc2ccccc12)c1cccc(Cl)c1Cl
4. COc1cccc(OC)c1S(=O)(=O)Nc1noc2cc(C(C)OC)cc(OC)c12 (stereo not drawn)
5. COc1ccccc1-c1cc(OC)c2c(NS(=O)(=O)c3c(OC)cccc3OC)noc2c1
6. COc1cc(C)cc(C)c1S(=O)(=O)Nc1noc2cccc(OC)c12
7. CCc1ccc(OC)c(S(=O)(=O)Nc2noc3cccc(Br)c23)c1

46.5
24.8
116
0.181
0.03
46.2
0.772

Parameter requested: IC50. Apply to each item below.
1. COc1ccc(OC)c(S(=O)(=O)Nc2noc3ccccc23)c1
2. COc1ccc(S(=O)(=O)Nc2noc3cccc(OC)c23)c2ncccc12

1: 36.2; 2: 3.91

* * *

Task for the reader: assign each of the following molecules its reported pIC50.
# target desc: TIP60-KAT5 (Homo sapiens, UniProt Q92993)
# Sequence (Q92993 with tags, fused parts or gaps isoform Q92993-2): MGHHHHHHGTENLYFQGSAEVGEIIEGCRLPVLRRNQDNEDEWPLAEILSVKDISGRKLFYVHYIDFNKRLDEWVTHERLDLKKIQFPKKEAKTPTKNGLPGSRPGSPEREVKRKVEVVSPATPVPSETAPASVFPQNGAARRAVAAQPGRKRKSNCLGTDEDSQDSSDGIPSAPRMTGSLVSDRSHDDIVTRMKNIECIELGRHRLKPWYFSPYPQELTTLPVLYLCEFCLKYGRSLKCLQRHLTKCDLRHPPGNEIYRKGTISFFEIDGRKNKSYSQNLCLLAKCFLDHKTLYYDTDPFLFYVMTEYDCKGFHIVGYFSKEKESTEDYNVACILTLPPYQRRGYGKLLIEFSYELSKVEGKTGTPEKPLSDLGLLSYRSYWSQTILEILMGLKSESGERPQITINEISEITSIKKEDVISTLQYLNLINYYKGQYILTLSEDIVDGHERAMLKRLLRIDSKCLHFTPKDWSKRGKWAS
Give bare numbers, as −log10 of the molar value.

Parameter requested: pIC50. Apply to each item below.
1. CCc1ccc(OC)c(S(=O)(=O)Nc2noc3c(OCC4CC4)cccc23)c1 [Example 133]
2. COc1ccc(-c2ccccc2)c(OC)c1S(=O)(=O)Nc1noc2cccc(OC)c12 [Example 96]

4.34
4.54

Would you kindly share the measured pIC50 for O=S(=O)(Nc1noc2cccc(Cl)c12)c1ccc2c(c1)CCC2 [Example 44] ? 4.22

* * *

Entries below carry reported IC50 on TIP60-KAT5 (Homo sapiens, UniProt Q92993).
Give bare numbers, in µM.

Check out these entries, answers already filled in.
- compound: "COc1ccc(S(=O)(=O)Nc2noc3cc(Br)c(C)cc23)c(OC)c1 [Example 171]"
  target desc: "TIP60-KAT5 (Homo sapiens, UniProt Q92993)"
  measurement label: "IC50"
  result value: 4.37
- compound: "COc1cccc(OC)c1S(=O)(=O)Nc1noc2cc(-c3cccnc3)cc(OC)c12 [Example 246]"
  target desc: "TIP60-KAT5 (Homo sapiens, UniProt Q92993)"
  measurement label: "IC50"
  result value: 27.1

Parameter requested: IC50. Apply to each item below.
1. COCc1cc2onc(NS(=O)(=O)c3c(OC)cccc3OC)c2c(OC)c1Cl [Example 145]
2. COCc1cc(OC)c2c(NS(=O)(=O)c3c(OC)cccc3OC)noc2c1 [Example 173]
3. O=S(=O)(Nc1noc2cccc(Cl)c12)c1cc(OCC(F)(F)F)ccc1OCC(F)(F)F [Example 10]
4. COc1ccc(S(=O)(=O)Nc2noc3cc(C#N)c(C)cc23)c(OC)c1 [Example 169]

1. 21
2. 4.05
3. 93.7
4. 63.2

* * *

Entries below carry reported pIC50 on HBO-KAT7 (Homo sapiens).
Answers are plain numbers, as −log10 of the molar value.

Parameter requested: pIC50. Apply to each item below.
1. Cc1cnc2c(S(=O)(=O)Nc3noc4cccc(Cl)c34)cccc2c1
2. CCc1ccc(OC)c(S(=O)(=O)Nc2noc3ccc(-c4cnn(C)c4)cc23)c1
3. O=S(=O)(Nc1noc2cccc(Cl)c12)c1cccc2c1OCC2
4. CCc1ccc(OC)c(S(=O)(=O)Nc2noc3cccc(OC)c23)c1OC
5. Cc1ccc(-n2cccn2)cc1S(=O)(=O)Nc1noc2cccc(Cl)c12

6.07
4.74
5.75
4.79
4.38

* * *

# target desc: MOZ-KAT6A (Homo sapiens, UniProt Q92794, A567V)
# protocol: Acetyltransferase biochemical assay (AlphaScreen), KAT6A
measurement label: pIC50
One number for each entry, as −log10 of the molar value.

- cpd smiles: "COCc1cc2onc(NS(=O)(=O)c3cccnc3)c2cc1C"
  measurement label: "pIC50"
  result value: 4.00

Attention now turns to another entry.
Would you kindly share the measured pIC50 for "CCc1ccc(OC)c(S(=O)(=O)Nc2noc3ccc(OC)cc23)c1" ? 6.07

* * *

# target desc: HBO-KAT7 (Homo sapiens, UniProt O95251)
# Sequence (O95251 with tags, fused parts or gaps): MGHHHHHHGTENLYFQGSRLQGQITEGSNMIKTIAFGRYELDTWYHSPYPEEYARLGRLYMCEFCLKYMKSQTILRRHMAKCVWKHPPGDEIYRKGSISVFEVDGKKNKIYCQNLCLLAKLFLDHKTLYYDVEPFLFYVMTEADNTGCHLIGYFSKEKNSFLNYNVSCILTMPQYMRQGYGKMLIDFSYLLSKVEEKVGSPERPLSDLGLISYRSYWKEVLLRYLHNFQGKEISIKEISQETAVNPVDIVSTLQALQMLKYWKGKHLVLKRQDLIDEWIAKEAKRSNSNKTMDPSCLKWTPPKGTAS
Task for the reader: assign each of the following compounds its reported pIC50.
Give bare numbers, as −log10 of the molar value.

Check out these entries, answers already filled in.
- cpd smiles: "O=S(=O)(Nc1noc2cccc(Cl)c12)c1ccc2c(c1)CCCC2"
  pIC50: 5.08
- cpd smiles: "CCc1cc(S(=O)(=O)Nc2noc3cccc(Cl)c23)c(=O)n(C)c1"
  pIC50: 4.93
- cpd smiles: "COc1cccc(OCCO)c1S(=O)(=O)Nc1noc2cccc(OC)c12"
  pIC50: 4.96
- cpd smiles: "COCc1cc(OC)c2c(NS(=O)(=O)c3c(O)cccc3OC)noc2c1"
  pIC50: 4.88

Kindly state the measured pIC50 obtained for "O=S(=O)(Nc1noc2cccc(Cl)c12)c1cccc(-c2ccccc2)c1" with HBO-KAT7 (Homo sapiens, UniProt O95251). 4.89

* * *

# target desc: MOZ-KAT6A (Homo sapiens, UniProt Q92794, A567V)
# protocol: Acetyltransferase biochemical assay (AlphaScreen), KAT6A
measurement label: IC50 (nM)
Answers are plain numbers, in nM.

Check out these entries, answers already filled in.
- cpd smiles: "COc1cccc(OC)c1S(=O)(=O)Nc1noc2cc(Br)cc(OC)c12"
  target desc: "MOZ-KAT6A (Homo sapiens, UniProt Q92794, A567V)"
  measurement label: "IC50"
  result value: 285
- cpd smiles: "CCc1ccc(OC)c(S(=O)(=O)Nc2noc3c(-c4ccccc4)cccc23)c1"
  target desc: "MOZ-KAT6A (Homo sapiens, UniProt Q92794, A567V)"
  measurement label: "IC50"
  result value: 1440
- cpd smiles: "CCc1ccc(OC)c(S(=O)(=O)Nc2noc3c(F)cccc23)c1"
  target desc: "MOZ-KAT6A (Homo sapiens, UniProt Q92794, A567V)"
  measurement label: "IC50"
  result value: 6280
- cpd smiles: "COc1cc(CNC(C)=O)cc(OC)c1S(=O)(=O)Nc1noc2cccc(OC)c12"
  target desc: "MOZ-KAT6A (Homo sapiens, UniProt Q92794, A567V)"
  measurement label: "IC50"
  result value: 2130
- cpd smiles: "COc1cccc2onc(NS(=O)(=O)c3cccc4cccnc34)c12"
  target desc: "MOZ-KAT6A (Homo sapiens, UniProt Q92794, A567V)"
  measurement label: "IC50"
  result value: 13600

Parameter requested: IC50. Apply to each item below.
1. CCc1ccc(OC)c(S(=O)(=O)Nc2noc3ccc(C4CC4)c(Cl)c23)c1
2. O=S(=O)(Nc1noc2cccc(Cl)c12)c1ccc2c(c1)CCCC2

1: 104; 2: 5950

Where these numbers come from: patent US12365655B2
